The reported measurements were obtained from patent US20210228545A1.

TEST TARGET: OCT2 (Homo sapiens)
Sequence (O15244 whole entry): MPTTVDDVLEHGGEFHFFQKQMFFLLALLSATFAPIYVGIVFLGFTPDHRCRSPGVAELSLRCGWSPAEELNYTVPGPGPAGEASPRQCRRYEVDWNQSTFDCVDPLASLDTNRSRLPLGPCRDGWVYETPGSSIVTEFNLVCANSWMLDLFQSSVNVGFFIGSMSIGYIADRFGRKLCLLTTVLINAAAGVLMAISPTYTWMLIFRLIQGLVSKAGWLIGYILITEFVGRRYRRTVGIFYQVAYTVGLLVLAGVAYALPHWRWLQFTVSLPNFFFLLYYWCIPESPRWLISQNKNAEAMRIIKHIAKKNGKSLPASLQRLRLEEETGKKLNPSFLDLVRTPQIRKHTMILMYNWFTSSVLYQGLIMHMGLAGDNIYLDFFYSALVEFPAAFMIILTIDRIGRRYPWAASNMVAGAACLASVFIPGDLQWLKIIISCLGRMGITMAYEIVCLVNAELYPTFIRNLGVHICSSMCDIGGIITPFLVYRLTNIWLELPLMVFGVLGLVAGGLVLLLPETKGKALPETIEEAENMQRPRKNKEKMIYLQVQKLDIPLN
pIC50: −log10 of the molar value.
MEASURED ATTRIBUTE: pIC50

Documented pIC50 of O=C(O)C[C@H]1CCc2c1[nH]c1ccc(OCc3ccc(C4CCCC4)c(C(F)(F)F)c3)cc21 [Compound 1] : < 5.00

====

TEST TARGET: MATE2-K (Homo sapiens)
Sequence (Q86VL8 1-566 isoform Q86VL8-3): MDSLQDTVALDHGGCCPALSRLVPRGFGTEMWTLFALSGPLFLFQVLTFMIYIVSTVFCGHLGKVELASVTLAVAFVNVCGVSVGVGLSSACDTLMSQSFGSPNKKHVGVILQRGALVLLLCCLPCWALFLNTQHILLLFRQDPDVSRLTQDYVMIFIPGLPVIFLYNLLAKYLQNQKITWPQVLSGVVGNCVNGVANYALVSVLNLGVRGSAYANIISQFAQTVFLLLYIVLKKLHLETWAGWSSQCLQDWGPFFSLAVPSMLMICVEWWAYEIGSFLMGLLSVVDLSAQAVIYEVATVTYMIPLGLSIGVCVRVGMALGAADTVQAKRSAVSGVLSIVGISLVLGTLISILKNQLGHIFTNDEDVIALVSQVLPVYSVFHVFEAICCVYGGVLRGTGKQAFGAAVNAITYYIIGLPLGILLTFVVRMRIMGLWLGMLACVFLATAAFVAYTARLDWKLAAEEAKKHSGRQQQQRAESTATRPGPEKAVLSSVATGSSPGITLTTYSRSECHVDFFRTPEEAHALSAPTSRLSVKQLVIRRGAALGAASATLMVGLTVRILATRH
MEASURED ATTRIBUTE: IC50

Documented IC50 of O=C(O)C[C@H]1CCc2c1[nH]c1ccc(OCc3ccc(C4CCCC4)c(C(F)(F)F)c3)cc21 [Compound 1] : > 10 µM

====

TEST TARGET: P-gp (Homo sapiens, UniProt P08183)
Sequence (P08183 whole entry): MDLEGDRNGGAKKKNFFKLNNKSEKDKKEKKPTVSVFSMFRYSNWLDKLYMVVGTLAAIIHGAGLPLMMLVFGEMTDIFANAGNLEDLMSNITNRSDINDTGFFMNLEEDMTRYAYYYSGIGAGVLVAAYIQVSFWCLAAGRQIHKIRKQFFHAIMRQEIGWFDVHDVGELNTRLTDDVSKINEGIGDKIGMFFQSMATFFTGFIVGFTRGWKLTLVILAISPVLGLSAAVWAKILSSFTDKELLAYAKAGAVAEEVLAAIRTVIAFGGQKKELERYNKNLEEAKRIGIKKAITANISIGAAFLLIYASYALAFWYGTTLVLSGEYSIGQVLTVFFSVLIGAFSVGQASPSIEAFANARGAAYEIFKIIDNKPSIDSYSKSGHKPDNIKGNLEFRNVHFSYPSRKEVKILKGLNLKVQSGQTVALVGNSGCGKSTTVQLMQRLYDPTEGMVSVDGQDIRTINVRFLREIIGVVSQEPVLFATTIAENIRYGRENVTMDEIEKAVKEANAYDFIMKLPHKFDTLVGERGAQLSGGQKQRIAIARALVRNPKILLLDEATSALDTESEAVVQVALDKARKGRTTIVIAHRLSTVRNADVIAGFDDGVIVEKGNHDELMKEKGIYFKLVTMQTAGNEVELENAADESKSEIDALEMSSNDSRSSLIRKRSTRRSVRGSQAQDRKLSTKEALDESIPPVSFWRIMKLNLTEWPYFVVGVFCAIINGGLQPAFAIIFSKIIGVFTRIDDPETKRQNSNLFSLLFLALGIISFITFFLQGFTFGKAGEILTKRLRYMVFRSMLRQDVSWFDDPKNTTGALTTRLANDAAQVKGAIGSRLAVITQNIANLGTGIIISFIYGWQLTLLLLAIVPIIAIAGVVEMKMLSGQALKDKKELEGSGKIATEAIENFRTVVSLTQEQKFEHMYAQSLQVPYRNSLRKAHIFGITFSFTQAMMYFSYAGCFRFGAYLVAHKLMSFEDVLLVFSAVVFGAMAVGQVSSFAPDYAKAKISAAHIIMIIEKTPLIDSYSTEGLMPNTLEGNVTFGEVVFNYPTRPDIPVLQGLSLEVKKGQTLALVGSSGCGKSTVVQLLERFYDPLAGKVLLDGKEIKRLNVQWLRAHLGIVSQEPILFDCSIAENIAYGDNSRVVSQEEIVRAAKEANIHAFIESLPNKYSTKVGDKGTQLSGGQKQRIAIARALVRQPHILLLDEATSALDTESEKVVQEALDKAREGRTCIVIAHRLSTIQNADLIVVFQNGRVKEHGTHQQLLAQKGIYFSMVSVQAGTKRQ
ASSAY INFO: Transporter substrate evaluation, MDCKII-P-gp cells
Type: in vitro ADME
Parameters: expressed in transfected cells; host or cells: MDCKII (Madin-Darby canine kidney) cells
REPORTED CONDITIONS: MDCK-MDR1, 10 μM
MEASURED ATTRIBUTE: efflux ratio at 10 μM
Reply with just the number.

Documented efflux ratio at 10 μM of O=C(O)C[C@H]1CCc2c1[nH]c1ccc(OCc3ccc(C4CCCC4)c(C(F)(F)F)c3)cc21 : 3.17
